# target.entity: NEMO (NF-kB essential modulator) in 70Z3-C3 pre-B lymphocytes (UniProt O88522 1-412, limits assumed)
# Sequence (O88522 whole entry): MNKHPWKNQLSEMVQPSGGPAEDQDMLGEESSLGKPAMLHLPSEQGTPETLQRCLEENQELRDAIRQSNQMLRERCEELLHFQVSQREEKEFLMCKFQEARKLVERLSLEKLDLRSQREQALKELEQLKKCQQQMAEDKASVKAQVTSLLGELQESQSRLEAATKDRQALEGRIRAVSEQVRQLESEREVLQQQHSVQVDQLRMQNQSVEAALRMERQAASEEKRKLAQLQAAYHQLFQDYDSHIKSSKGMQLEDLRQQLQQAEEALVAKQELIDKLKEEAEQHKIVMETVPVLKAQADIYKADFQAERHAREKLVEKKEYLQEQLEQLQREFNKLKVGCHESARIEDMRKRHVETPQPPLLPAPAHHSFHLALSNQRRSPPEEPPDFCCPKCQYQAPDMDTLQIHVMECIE
# experiment.summary: cell-based or functional assay
Bridges are numbered along the chain shown (N, C = ends). Where no end group is shown, it is not given here. [ ]: non-standard residue; d: D form. R8 = C=CCCCCCC[C@@](C)(N)C(=O)O; S5 = C=CCCC[C@](C)(N)C(=O)O; Aib = CC(C)(N)C(=O)O
measurement.kind: IC 50(µM), NF-κB inhibition in LPS-stimulated 70Z3-C3 lacZ reporter cells
Write the numeric value and append its unit.

Consider the worked cases shown below.
binder="Ac-CRQIKIWFQNRRMKWKKLK[R8]QADIYK[S5]RFQAERHAREK-NH2 (staple 20-27; also: Cys1 thiol labelled with BODIPY or FITC (which one not fixed), conformer B, With N-terminal antennapedia) [A-UBI-SAHN A303-A310, conformer B]" result="0.6 µM"
binder="Ac-CRQIKIWFQNRRMKWKKLKAQA[R8]IYKARF[S5]AERHAREK-NH2 (staple 23-30; also: extra N-terminal Cys labelled with BODIPY or FITC (label not settled), staple isomer A (cis), With N-terminal antennapedia; also called A-UBI-SAHND306-Q313 (A)) [A-UBI-SAHN D306-Q313, conformer A]" result="0.6 µM"
binder="CRQIKIWFQNRRMKWKKLK[Aib]Q[Aib]DIYK[Aib]RFQ[Aib]ERH[Aib]REK (also: N-terminal Cys labelled with BODIPY or FITC) [A-UBI-AIB]" result="1.5 µM"

Attention now turns to another entry.
Lab book: IC 50(µM), NF-κB inhibition in LPS-stimulated 70Z3-C3 lacZ reporter cells of Ac-CRQIKIWFQNRRMKWKKLKAQADIYK[S5]RFQ[S5]ERHAREK-NH2 (staple 27-31; also: N-terminal Cys thiol labelled with BODIPY or FITC (BODIPY FL maleimide), Stapled i,i+4 with N-terminal antennapedia) [A-UBI-SAHN A310-A314] noted as 0.43 µM

The origin of these recorded values is patent US20220025002A1.
